Biological target: Acetylcholinesterase (Mus musculus, UniProt P21836)
Sequence (P21836 whole entry): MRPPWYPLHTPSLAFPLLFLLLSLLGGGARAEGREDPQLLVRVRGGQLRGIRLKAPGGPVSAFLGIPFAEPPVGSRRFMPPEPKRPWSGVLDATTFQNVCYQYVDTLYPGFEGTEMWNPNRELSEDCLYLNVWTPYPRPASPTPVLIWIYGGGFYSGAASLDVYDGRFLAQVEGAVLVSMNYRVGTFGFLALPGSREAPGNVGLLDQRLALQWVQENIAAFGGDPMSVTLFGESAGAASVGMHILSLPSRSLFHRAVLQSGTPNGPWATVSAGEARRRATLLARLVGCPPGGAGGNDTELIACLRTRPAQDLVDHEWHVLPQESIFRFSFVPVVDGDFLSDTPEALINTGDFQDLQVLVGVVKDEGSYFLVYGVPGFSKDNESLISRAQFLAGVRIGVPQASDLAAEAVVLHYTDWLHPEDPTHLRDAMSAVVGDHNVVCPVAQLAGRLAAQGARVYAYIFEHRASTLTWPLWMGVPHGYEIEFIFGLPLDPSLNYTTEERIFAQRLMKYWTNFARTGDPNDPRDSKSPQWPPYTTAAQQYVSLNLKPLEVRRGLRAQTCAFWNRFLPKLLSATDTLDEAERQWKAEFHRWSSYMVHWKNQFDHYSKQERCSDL
property name: Ki

Item under review: N#Cc1ccc2[nH]cc(CCCCN3CCN(c4ccc(C(=O)CCC5CCN(Cc6ccccc6)CC5)cc4)CC3)c2c1 . Reported Ki? 1.16 nM
